# assay procedure: RAM pathway blockade in budding yeast – dse1pr::URA3 reporter, 5-FOA selection, pilot screen (AID 869);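 also: 0% = DMSO wells with no growth and 100% = 10 µM 1-NA-PP1 with full growth; RAM network block rescues cells from 5-FOA so hits raise OD615 growth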
# assay setup: S. cerevisiae dse1pr::URA3 5-FOA growth, OD615, 2 d, at 10 µM, active compounds read high
Activity calls are given as the source filed them.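 The calls were made as follows: active = inhibition over a set limit, the all-compound mean plus 3 SD, in both replicate runs; inconclusive = over that limit in just one replicate run; inactive = at or under that limit in both runs.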
Reported inhibition is given for each of the following molecules.

>  <molecule>
Cc1ccc2c(c1)C1CN(C)CCC1N2C(=O)c1ccco1 (configuration not stated)

>  <inhibition>
1.32% (inactive)

$$$$
>  <molecule>
COc1cc2c(cc1OC)C(C(=O)N1CCC3(CC1)OCCO3)C(c1ccccc1F)N(C)C2=O (configuration not stated)

>  <inhibition>
1.23% (inactive)

$$$$
>  <molecule>
COc1ccc2[nH]c(C)c(CCN3CCC(=O)C(C)C3C)c2c1 (configuration not stated)

>  <inhibition>
0.27% (inactive)

$$$$
>  <molecule>
O=P(OCC(F)(F)C(F)F)(N1CCCCC1)N1CCCCC1

>  <inhibition>
0.595% (inactive)

$$$$
>  <molecule>
c1cncc(C2CCCCN2Cc2ccc3c(c2)OCO3)c1 (configuration not stated)

>  <inhibition>
2.12% (inactive)

$$$$
>  <molecule>
c1ccc2sc(C3CCCNC3)nc2c1 (configuration not stated)

>  <inhibition>
2.33% (inactive)

$$$$
>  <molecule>
COP(=S)(OC)SCN1C(=O)c2ccccc2C1=O

>  <inhibition>
1.48% (inactive)

$$$$
>  <molecule>
O=C(CN1CC(c2ccccc2)CC1=O)Nc1cccc(F)c1 (configuration not stated)

>  <inhibition>
1.39% (inactive)

$$$$
>  <molecule>
Cc1ccc(CC2C(=O)N(C)C(=O)N(C)C2=O)s1

>  <inhibition>
-0.01% (inactive)

$$$$
>  <molecule>
CC(=O)c1cccc(NC2=NCC(C)S2)c1 (configuration not stated)

>  <inhibition>
2.77% (inactive)

$$$$
>  <molecule>
COc1cc(C2SCC(=O)Nc3c2c(=O)[nH]n3C2CCCCCC2)cc(OC)c1OC (configuration not stated)

>  <inhibition>
2.39% (inactive)

$$$$
